Biological target: Dihydrofolate reductase (Homo sapiens)
Sequence (P00374 whole entry): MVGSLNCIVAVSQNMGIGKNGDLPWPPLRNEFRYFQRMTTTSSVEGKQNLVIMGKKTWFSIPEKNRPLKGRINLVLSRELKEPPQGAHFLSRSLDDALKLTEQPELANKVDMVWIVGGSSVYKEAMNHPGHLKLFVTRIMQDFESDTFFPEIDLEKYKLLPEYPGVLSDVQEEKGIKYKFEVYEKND
Assay: Inhibition of recombinant human DHFR expressed in Escherichia coli BL21 (DE3) cells using dihydrofolate as substrate in presence of NADPH by spectrophotometric analysis
Exercise: for every item that follows, state its recorded pIC50.
pIC50 is a log-scale quantity: -log10 of the concentration expressed in molar.

Field request: pIC50 | item: COC(=O)C1CCN(C(=O)c2ccc(NCc3cnc4nc(N)nc(N)c4n3)cn2)CC1
4.22

Field request: pIC50 | item: COC(=O)C1CCN(C(=O)c2cccc(NCc3cnc4nc(N)nc(N)c4n3)c2)CC1
4.23

Field request: pIC50 | item: CCN(Cc1cnc2nc(N)nc(N)c2n1)c1ccc(C(=O)N2CCC(C(=O)OC)CC2)cc1
5.37

Field request: pIC50 | item: COC(=O)C1CCN(C(=O)c2ccc(N(CCCO)Cc3cnc4nc(N)nc(N)c4n3)cc2)CC1
4.82

Field request: pIC50 | item: COC(=O)C1CCN(C(=O)c2ccc(N(Cc3ccccc3)Cc3cnc4nc(N)nc(N)c4n3)cc2)CC1
4.14

Field request: pIC50 | item: Nc1nc(N)c2nc(CNc3ccc(C(=O)NCCc4ccccc4)cc3)cnc2n1
4.39

Field request: pIC50 | item: COC(=O)C1CCN(C(=O)c2ccc(SCc3cnc4nc(N)nc(N)c4n3)nc2)CC1
4.05

----------
Target: UniProt Q01782
Sequence (Q01782 whole entry): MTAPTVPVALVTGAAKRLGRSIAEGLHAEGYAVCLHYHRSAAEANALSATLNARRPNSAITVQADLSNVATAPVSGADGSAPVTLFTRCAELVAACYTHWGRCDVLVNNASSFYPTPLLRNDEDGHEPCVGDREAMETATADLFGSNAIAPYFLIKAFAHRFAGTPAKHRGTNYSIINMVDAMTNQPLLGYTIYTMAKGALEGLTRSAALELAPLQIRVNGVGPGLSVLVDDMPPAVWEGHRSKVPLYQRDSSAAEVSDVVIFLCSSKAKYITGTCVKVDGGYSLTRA
Assay: Inhibition of recombinant Leishmania major PTR1 expressed in Escherichia coli BL21 (DE3) cells using H2B as substrate in presence of cytochrome c and NADPH by envision multilabel reader
parameterMeasured: IC50 (nM)
Response body: numeric value in nM, unit text excluded.

Field request: IC50 | item: CCN(Cc1cnc2nc(N)nc(N)c2n1)c1ccc(C(=O)N2CCC(C(=O)OC)CC2)cc1
13300

Field request: IC50 | item: C#CCN(Cc1cnc2nc(N)nc(N)c2n1)c1ccc(C(=O)N2CCC(C(=O)OC)CC2)cc1
320

Field request: IC50 | item: Nc1nc(N)c2nc(C(=O)NCc3ccccc3)cnc2n1
5500

Field request: IC50 | item: CCOC(=O)C1CCN(C(=O)c2ccc(N(CC)Cc3cnc4nc(N)nc(N)c4n3)cc2)CC1
100

Field request: IC50 | item: COC(=O)C1CCN(C(=O)Cc2ccc(NCc3cnc4nc(N)nc(N)c4n3)cc2)CC1
1140

Field request: IC50 | item: COc1cc(Oc2ccc(CNCc3cnc4nc(N)nc(N)c4n3)cc2)cc(OC)c1OC
170

----------
Exercise: for every item that follows, state its recorded CC50.
Assay: Cytotoxicity against human THP-1 derived macrophages by colorimetric MTT assay
Assay type: toxicity, cell-based, Macrophage
Settings: THP-1 derived macrophages
Response body: numeric value in µM, unit text excluded.

Field request: CC50 | item: COc1ccc(Oc2ccc(CN(Cc3ccccc3)Cc3cnc4nc(N)nc(N)c4n3)cc2)cc1
12.5

Field request: CC50 | item: COc1ccc(Oc2ccc(CN(C)Cc3cnc4nc(N)nc(N)c4n3)cc2)cc1
12.5

Field request: CC50 | item: CCN(Cc1cnc2nc(N)nc(N)c2n1)c1ccc(C(=O)c2ccccc2)cc1
25

----------
Exercise: for every item that follows, state its recorded pIC50.
Target: Bifunctional dihydrofolate reductase-thymidylate synthase (Leishmania major, UniProt P07382)
Sequence (P07382 whole entry): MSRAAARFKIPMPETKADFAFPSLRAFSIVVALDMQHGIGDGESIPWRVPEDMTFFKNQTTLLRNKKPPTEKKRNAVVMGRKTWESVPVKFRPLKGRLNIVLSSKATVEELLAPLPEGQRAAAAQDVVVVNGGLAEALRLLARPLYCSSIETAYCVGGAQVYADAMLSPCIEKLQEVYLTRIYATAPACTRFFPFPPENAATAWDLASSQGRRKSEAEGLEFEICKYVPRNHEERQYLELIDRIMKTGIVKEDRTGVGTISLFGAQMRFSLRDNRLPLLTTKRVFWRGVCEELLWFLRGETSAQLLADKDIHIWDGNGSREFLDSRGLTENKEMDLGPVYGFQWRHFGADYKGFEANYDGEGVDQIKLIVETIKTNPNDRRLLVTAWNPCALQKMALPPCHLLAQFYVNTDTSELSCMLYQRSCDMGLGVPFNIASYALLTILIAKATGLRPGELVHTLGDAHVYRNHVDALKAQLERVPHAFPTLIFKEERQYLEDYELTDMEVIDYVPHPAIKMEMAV
Assay: Inhibition of recombinant Leishmania major DHFR-TS expressed in Escherichia coli BL21 (DE3) cells using dihydrofolate as substrate in presence of NADPH by spectrophotometric analysis
pIC50 is a log-scale quantity: -log10 of the concentration expressed in molar.

Field request: pIC50 | item: Nc1nc(N)c2nc(CNc3ccc(C(=O)c4ccccc4)cc3)cnc2n1
5.49

Field request: pIC50 | item: COC(=O)C1CCN(C(=O)c2ccc(N(CCCO)Cc3cnc4nc(N)nc(N)c4n3)cc2)CC1
6.12

Field request: pIC50 | item: Nc1nc(N)c2nc(CNc3ccc(C(=O)NCCc4ccccc4)cc3)cnc2n1
6.14

Field request: pIC50 | item: COC(=O)C1CCN(C(=O)c2ccc(SCc3cnc4nc(N)nc(N)c4n3)nc2)CC1
5.03
